- assayed-target: UniProt:Q9NWZ3
- Sequence (Q9NWZ3 whole entry): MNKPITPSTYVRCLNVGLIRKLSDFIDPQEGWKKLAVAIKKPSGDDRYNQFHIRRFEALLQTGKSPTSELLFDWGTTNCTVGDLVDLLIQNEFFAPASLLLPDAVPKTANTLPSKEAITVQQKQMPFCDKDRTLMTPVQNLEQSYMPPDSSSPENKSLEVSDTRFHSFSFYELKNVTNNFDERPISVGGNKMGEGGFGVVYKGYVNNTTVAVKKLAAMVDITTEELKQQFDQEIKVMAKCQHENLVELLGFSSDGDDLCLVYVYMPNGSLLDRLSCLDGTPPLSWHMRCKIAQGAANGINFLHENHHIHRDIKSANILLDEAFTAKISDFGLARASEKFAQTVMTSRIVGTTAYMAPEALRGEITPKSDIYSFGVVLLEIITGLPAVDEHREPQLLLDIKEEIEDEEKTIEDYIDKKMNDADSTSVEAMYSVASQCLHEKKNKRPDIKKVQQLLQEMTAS
readout-type: IC50 (nM)

compound="Cc1nc(C(=O)N2CCN([C@H]3C[C@@H](C(=O)Nc4cc5cc(-c6cnc(CO[C@H]7CCC[C@@H]7O)nc6)ccn5n4)C3)[C@@H](C)C2)co1 [e-02-24]" assayed_target=UniProt:Q9NWZ3 readout_type=IC50 unit_name=nM value=1.27

a = O=C(Nc1nc2ccc(-c3cnc(CO[C@H]4CCC[C@@H]4O)nc3)cc2s1)C1CC(N2CC(F)(F)C2)C1 (stereo partly shown) [b-02-12]
b = C[C@H]1CN(C(=O)OC(C)(C)C)CCN1[C@H]1C[C@@H](C(=O)Nc2nc3ccc(-c4cnc(CO[C@H]5CCC[C@@H]5O)nc4)cc3s2)C1 [b-04-01]
c = C[C@H]1CN(C(=O)c2cccnc2C(F)(F)F)CCN1[C@H]1C[C@@H](C(=O)Nc2nc3ccc(-c4cnc(CO[C@H]5CCC[C@@H]5O)nc4)cc3s2)C1 [b-04-30]
d = CC(C)C(=O)N1CCN([C@H]2C[C@@H](C(=O)Nc3nc4ccc(-c5cnc(CO[C@H]6CCC[C@@H]6O)nc5)cc4s3)C2)[C@@H](C)C1 [b-05-06]
Request: Highest IC50 first, then in falling order down to the smallest. Answer format: list of labels, ordered as asked.
Result: b, a, d, c

1 = O=C(Nc1nc2ccc(-c3cnc(CO[C@H]4CCC[C@@H]4O)nc3)cc2s1)C1C[C@H]1c1cccnc1 (stereo partly shown) [a-01-05]
2 = CCCOCc1ncc(-c2ccn3nc(NC(=O)[C@H]4C[C@@H](N5CCN(C(=O)c6ccc(Cl)cn6)C[C@@H]5C)C4)cc3c2)cn1 [e-02-22]
Request: Between 1 and 2 , which one has the lower reported IC50 value? Pick one; state its label.
Result: 2

1 = COCC(=O)N1CCN([C@H]2C[C@@H](C(=O)Nc3nc4ccc(-c5cnc(CO[C@H]6CCC[C@@H]6O)nc5)c(OC)c4s3)C2)[C@@H](C)C1 [c-03-03]
2 = O=C(Nc1nc2ccc(-c3cnc(CO[C@H]4CCC[C@@H]4O)nc3)cc2s1)C1CC(NC2CC2)C1 (stereo partly shown) [b-02-47]
Request: Which one would you say has the larger IC50 value: 1 , or 2 ? Pick one; state its label.
Result: 1
(1: 2.54 nM, 2: 1.75 nM)

A = C[C@]1(F)C[C@H](C(=O)Nc2nc3ccc(-c4cnc(CO[C@H]5CCC[C@@H]5O)nc4)cc3s2)C1 [d-01-08]
B = O=C(Nc1nc2ccc(-c3cnc(CO[C@H]4CCC[C@@H]4O)nc3)cc2s1)C1CC2(CCN(C(=O)C3COC3)CC2)C1 [d-03-09]
Request: Between A and B , which one has the lower reported IC50 value? Pick one; state its label.
Result: B

Each recorded value in this set is attributed to patent US20240025893A1.
